Hello, the source for this data is patent US8148391B2, in case you need it.

target: c-Met (cytoplasmic domain) (Homo sapiens); construct: 10 ng/mL c-Met (cytoplasmic domain, Invitrogen Corporation #PV3143); purchased Invitrogen Corporation PV3143; assay: c-Met Kinase Assay (same methods as for ALK, with modifications); assay type: biochemical; settings: c-Met kinase inhibition, 1 μM ATP (Km level); read-out: cMet Activity
pIC50: −log10 of the molar value.
measurement_type: pIC50

Look at each compound and report its pIC50.
1. CNC(=O)c1cccc(Cl)c1Nc1nc(Nc2ccc3c(c2)N(C)CCNC3)ncc1Cl
2. CCN1CCc2ccc(Nc3ncc(Cl)c(NCC(C)(C)NS(C)(=O)=O)n3)cc2CC1
3. CNC(=O)c1ccccc1Nc1nc(Nc2ccc3c(c2)N(C)CCNC3)ncc1Cl
4. CNC(=O)c1cc(Cl)cc(Cl)c1Nc1nc(Nc2ccc3c(c2)CCN(CCOC)CC3)ncc1Cl

1: > 7.00; 2: 5.00 to 6.00; 3: > 7.00; 4: > 7.00

* * *

target: baculovirus-expressed ALK (Homo sapiens); construct: host or cells: baculovirus expression system; assay: ALK Kinase Assay (ELISA-type, time-resolved fluorescence); format: biochemical; details: 1 μM ATP (Km level), 30 ng/ml ALK, 37° C., 15 minutes; read-out: ALK Activity (ALK kinase inhibition, IC50 class)
measurement_type: IC50

Parameters: items (list). Returns: IC50 for each item.
1. CNC(=O)CN1CCc2cc(Nc3ncc(Cl)c(Nc4ccccc4OC)n3)c(OC)cc2CC1 [Example 1135]
2. O=C1CCCc2ccc(Nc3ncc(Cl)c(Nc4c(F)cccc4OC4CCOC4)n3)cc2N1 (stereo not drawn) [Example 1273]
3. CNC(=O)CN1CCc2ccc(Nc3ncc(Cl)c(Nc4c(Cl)cccc4C(=O)NC)n3)cc2CC1 [Example 1373]
4. COc1cc2c(cc1Nc1ncc(Cl)c(Nc3ccccc3S(=O)(=O)C(C)C)n1)CCN(CCS(C)(=O)=O)CC2 [Example 1164]

< 0.1 µM
0.1 to 1 µM
0.1 to 1 µM
< 0.1 µM

Please give IC50, item by item, for the list that follows.
1. CNC(=O)c1ccc(Nc2nc(Nc3cc4c(cc3OC)CCN(C(COC)COC)CC4)ncc2Cl)c(OC)c1 [Example 1177]
2. CCN1C(=O)CCCc2ccc(Nc3ncc(Cl)c(Nc4cccc(CC#N)c4)n3)cc21 [Example 1229]

< 0.1 µM
0.1 to 1 µM

For each of the molecules below, state IC50.
1. CCOC(=O)N1CCCOc2ccc(Nc3ncc(Cl)c(Nc4c(F)cccc4C(=O)NC)n3)cc21 [Example 1410]
2. CCN1C(=O)CCC(C)(C)c2ccc(Nc3ncc(Cl)c(Nc4ccccc4S(C)(=O)=O)n3)cc21 [Example 1248]
3. CCCCNC(=O)c1ccccc1Nc1nc(Nc2ccc3c(c2)CCN(CCOC)CC3)ncc1Cl [Example 1028]
4. CNC(=O)c1cccc(F)c1Nc1nc(Nc2ccc3c(c2)NCC(NCCOC)CC3(C)C)ncc1Cl (stereo not drawn) [Example 1294]
5. CNC(=O)c1ccccc1Nc1nc(Nc2c(OC)ccc3c2CCC(NCC(F)F)CC3)ncc1Cl (stereo not drawn) [Example 1078]

0.1 to 1 µM
< 0.1 µM
< 0.1 µM
< 0.1 µM
0.1 to 1 µM

// for each molecule below, give its IC50
1. COc1cc2c(cc1Nc1ncc(Cl)c(Nc3ccc(C(N)=O)cc3OC)n1)CCN(CCS(C)(=O)=O)CC2 [Example 1161]
2. COc1ccc(Nc2nc(Nc3cc4c(cc3OC)CCN(CC(=O)N(C)C)CC4)ncc2Cl)c(OC)n1 [Example 1200]
3. CC1(C)CCC(=O)Nc2ccc(Nc3ncc(Cl)c(Nc4c(F)cccc4S(C)(=O)=O)n3)cc21 [Example 1260]
4. COc1cc2c(cc1Nc1ncc(Cl)c(Nc3ccccc3C(=O)OC(C)C)n1)CCN(CCCN(C)C)C(=O)C2 [Example 1111]

< 0.1 µM
< 0.1 µM
< 0.1 µM
< 0.1 µM

* * *

Task for the reader: assign each of the following compounds its reported IC50.
target: c-Met (cytoplasmic domain) (Homo sapiens, UniProt P08581); construct: 10 ng/mL c-Met (cytoplasmic domain, Invitrogen Corporation #PV3143); purchased Invitrogen Corporation PV3143; experiment: c-Met Kinase Assay (same methods as for ALK, with modifications); format: biochemical; details: 1 μM ATP (Km level), 10 ng/mL c-Met; read-out: cMet Activity (c-Met kinase inhibition, IC50 class)
Sequence (P08581 956-1390 limits assumed): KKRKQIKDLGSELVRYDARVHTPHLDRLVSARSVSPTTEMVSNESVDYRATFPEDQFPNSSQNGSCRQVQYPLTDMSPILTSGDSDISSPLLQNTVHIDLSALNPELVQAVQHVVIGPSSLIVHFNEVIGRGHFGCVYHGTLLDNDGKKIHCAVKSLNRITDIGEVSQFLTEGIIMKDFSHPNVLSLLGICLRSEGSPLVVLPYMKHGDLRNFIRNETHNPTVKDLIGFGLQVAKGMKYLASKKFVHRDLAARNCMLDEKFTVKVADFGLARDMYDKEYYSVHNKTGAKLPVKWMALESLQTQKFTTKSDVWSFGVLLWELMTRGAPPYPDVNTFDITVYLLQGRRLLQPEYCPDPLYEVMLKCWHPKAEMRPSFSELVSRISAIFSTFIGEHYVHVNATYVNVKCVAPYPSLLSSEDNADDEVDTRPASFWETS

COc1cc2c(cc1Nc1ncc(Cl)c(Nc3cccnc3OC)n1)CCN(CC(=O)N(C)C)CC2 :: > 10 µM
COc1cc2c(cc1Nc1ncc(Cl)c(Nc3cc(C(N)=O)ccc3OC)n1)CCN(CC(=O)N(C)C)CC2 :: 1 to 10 µM
COCCNC1CCc2cc(Nc3ncc(Cl)c(Nc4ccccc4S(=O)(=O)C(C)C)n3)c(OC)cc2CC1 (stereo not shown) :: 1 to 10 µM
COc1cccc(C(=O)NCCC#N)c1Nc1nc(Nc2ccc3c(c2)C(C)(C)CCC(=O)N3)ncc1Cl :: 1 to 10 µM
COCCN1CCc2ccc(Nc3ncc(Cl)c(N[C@@H]4CCC[C@@H](N(CC#N)S(C)(=O)=O)C4)n3)cc2CC1 (relative stereo) :: 1 to 10 µM

I have 2 compounds here; please give me IC50 for each one.
1. COc1cc2c(cc1Nc1ncc(Cl)c(Nc3ccc(C(N)=O)cc3OC)n1)CCN(CCS(C)(=O)=O)CC2
2. COc1cc2c(cc1Nc1ncc(Cl)c(Nc3ccccc3C(=O)OC(C)C)n1)CCN(CCCN(C)C)C(=O)C2

> 10 µM
> 10 µM

* * *

molecular target: c-Met (cytoplasmic domain) (Homo sapiens); construct: 10 ng/mL c-Met (cytoplasmic domain, Invitrogen Corporation #PV3143); purchased Invitrogen Corporation PV3143; test: c-Met Kinase Assay (same methods as for ALK, with modifications); assay type: biochemical; conditions: c-Met kinase inhibition, 1 μM ATP; read-out: cMet Activity
pIC50: −log10 of the molar value.
measurement_type: pIC50

Field: example entries. Status: answers known.
CNC(=O)c1ccccc1Nc1nc(Nc2cc3c(cc2OC)N(C)C(=O)OCC3)ncc1Cl [Example 1505] :: 5.00 to 6.00
CCN1C(=O)CN(C(C)=O)Cc2ccc(Nc3ncc(Cl)c(Nc4c(F)cccc4C(=O)NC)n3)cc21 [Example 1851] :: > 7.00
COc1cc2c(cc1Nc1ncc(Cl)c(Nc3ccccc3S(=O)(=O)N3CC[C@H](O)C3)n1)CCN(C[C@@H](C)O)CC2 [Example 1556] :: 5.00 to 6.00

Look up and state reported pIC50 for CNC(=O)c1cccc(OC(F)(F)F)c1Nc1nc(Nc2ccc3c(c2)CCOC(=O)N3C)ncc1Cl [Example 1773]
6.00 to 7.00

* * *

Target: baculovirus-expressed ALK (Homo sapiens)
Construct: host or cells: baculovirus expression system
Assay: ALK Kinase Assay (ELISA-type, time-resolved fluorescence)
Assay type: biochemical
Conditions: 1 μM ATP (Km level); read-out: ALK Activity (ALK Kinase Inhibition, IC50)
Procedure: Briefly, each 96-well plate was coated with 100 μL/well of 10 μg/mL substrate (phospholipase C-γ) in Tris-buffered saline (TBS). […] The reaction was initiated by adding enzyme (30 ng/ml ALK) and was allowed to proceed at 37° C. for 15 minutes. Detection of the phosphorylated product was performed by adding 100 μl/well of Eu-N1 labeled PT66 antibody (Perkin Elmer # AD0041). Data analysis was performed using ActivityBase (IDBS, Guilford, UK). […]
pIC50: −log10 of the molar value.
measurement_type: pIC50

Each compound below has a recorded value; state its pIC50.
1. COc1cc(N2CCOCC2)ccc1Nc1nc(Nc2ccc3c(c2OC)CCC(NCCO)CC3)ncc1Cl (stereo not drawn)
2. CNC(=O)c1cc(OC)ccc1Nc1nc(Nc2ccc3c(c2)CCN(CCOC)CC3)ncc1Cl
3. Cc1cccnc1-c1ccccc1Nc1nc(Nc2ccc3c(c2)CCC(NCC(F)(F)F)CC3)ncc1Cl (stereo not drawn)
4. COc1cc2c(cc1Nc1ncc(Cl)c(Nc3ccccc3S(=O)(=O)N(C)C)n1)CCN(CC1COCCO1)CC2 (stereo not drawn)

> 7.00
> 7.00
6.00 to 7.00
> 7.00

* * *

target: baculovirus-expressed ALK (Homo sapiens, UniProt Q9UM73); construct: host or cells: baculovirus expression system; experiment: ALK Kinase Assay (ELISA-type, time-resolved fluorescence); type: biochemical; conditions: ALK kinase inhibition, 1 μM ATP (Km level); read-out: ALK Activity
Sequence (Q9UM73 19-1620): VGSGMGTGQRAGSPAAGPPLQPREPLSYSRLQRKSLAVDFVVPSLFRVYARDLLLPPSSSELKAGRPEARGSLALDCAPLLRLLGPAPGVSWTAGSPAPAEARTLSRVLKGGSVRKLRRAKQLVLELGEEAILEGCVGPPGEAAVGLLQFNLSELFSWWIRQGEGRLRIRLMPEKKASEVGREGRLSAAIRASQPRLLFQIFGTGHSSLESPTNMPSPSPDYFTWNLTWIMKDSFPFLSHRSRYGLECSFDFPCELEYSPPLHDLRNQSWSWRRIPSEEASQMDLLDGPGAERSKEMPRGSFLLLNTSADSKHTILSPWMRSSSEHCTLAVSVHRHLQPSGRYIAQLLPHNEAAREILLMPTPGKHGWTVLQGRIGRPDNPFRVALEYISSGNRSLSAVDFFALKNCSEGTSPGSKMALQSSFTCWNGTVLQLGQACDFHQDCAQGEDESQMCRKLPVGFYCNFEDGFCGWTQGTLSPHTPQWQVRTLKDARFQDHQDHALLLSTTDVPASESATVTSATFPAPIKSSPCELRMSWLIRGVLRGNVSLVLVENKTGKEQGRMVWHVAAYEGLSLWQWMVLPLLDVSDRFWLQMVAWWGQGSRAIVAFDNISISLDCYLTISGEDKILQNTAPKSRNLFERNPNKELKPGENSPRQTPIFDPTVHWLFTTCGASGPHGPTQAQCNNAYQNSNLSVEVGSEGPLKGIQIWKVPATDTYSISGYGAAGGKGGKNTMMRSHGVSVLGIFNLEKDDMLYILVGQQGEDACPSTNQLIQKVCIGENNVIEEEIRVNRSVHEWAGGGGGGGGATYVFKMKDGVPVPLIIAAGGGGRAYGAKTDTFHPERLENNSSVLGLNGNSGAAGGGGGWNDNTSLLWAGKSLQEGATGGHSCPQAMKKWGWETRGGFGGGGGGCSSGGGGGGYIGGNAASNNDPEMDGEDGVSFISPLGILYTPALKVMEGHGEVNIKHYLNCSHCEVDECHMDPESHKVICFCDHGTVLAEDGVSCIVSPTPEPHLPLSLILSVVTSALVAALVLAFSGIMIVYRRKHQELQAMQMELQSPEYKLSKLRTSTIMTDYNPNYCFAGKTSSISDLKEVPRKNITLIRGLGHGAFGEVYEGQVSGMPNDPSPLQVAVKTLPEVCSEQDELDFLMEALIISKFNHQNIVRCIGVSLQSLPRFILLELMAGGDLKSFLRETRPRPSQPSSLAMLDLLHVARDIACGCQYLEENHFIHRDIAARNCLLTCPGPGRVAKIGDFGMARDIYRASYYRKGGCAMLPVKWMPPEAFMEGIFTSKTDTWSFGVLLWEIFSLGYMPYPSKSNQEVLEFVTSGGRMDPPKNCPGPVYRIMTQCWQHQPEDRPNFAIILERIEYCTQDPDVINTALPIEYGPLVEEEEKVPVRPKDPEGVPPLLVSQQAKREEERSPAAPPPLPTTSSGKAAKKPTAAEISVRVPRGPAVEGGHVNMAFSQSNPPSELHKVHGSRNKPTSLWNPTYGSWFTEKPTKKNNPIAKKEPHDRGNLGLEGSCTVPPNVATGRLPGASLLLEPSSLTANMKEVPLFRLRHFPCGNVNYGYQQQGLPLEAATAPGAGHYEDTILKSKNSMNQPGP
pIC50: −log10 of the molar value.
measurement_type: pIC50

CNC(=O)c1ccccc1Nc1nc(Nc2ccc3c(c2)CCN(C[C@@H](O)C(F)(F)F)CC3)ncc1Cl [Example 448] :: > 7.00
CNC(=O)c1cccc(Cl)c1Nc1nc(Nc2ccc3c(c2)C2CCC(C3)N2CCOC)ncc1Cl (centres unmarked) [Example 91] :: 6.00 to 7.00
CNC(=O)c1ccccc1Nc1nc(Nc2ccc3c(c2)CCN(C)CC3)ncc1Cl [Example 46] :: > 7.00
COc1cc(N2CCOCC2)ccc1Nc1nc(Nc2ccc3c(c2)CCN(C[C@@H](O)C(F)(F)F)CC3)ncc1Cl [Example 333] :: > 7.00
CNC(=O)c1sccc1Nc1nc(Nc2ccc3c(c2)N(C(C)=O)CC(=O)NC3)ncc1Cl [Example 1878] :: 6.00 to 7.00
CS(=O)(=O)Nc1ccccc1Nc1nc(Nc2ccc3c(c2)CNC(=O)NC3)ncc1Cl [Example 225] :: > 7.00
COc1cc(N2CCOCC2)ccc1Nc1nc(Nc2ccc3c(c2)CCC(=O)CC3)ncc1Cl [Example 175] :: > 7.00

Now for the compound whose pIC50 we want.
Give baculovirus-expressed ALK (Homo sapiens, UniProt Q9UM73) pIC50 for the following compound: CNC(=O)c1cccc(F)c1Nc1nc(Nc2ccc3c(c2)C(=O)NCCC3)ncc1Cl [Example 400]
6.00 to 7.00
